# assay protocol: Organ distribution of injected radioactivity in rats after I.V. injection
# Assay type: in vivo, Ratten (weiblich, Wistar, spf)
# condition summary: rat, ovary, iv, Ovar, 15h, Ratte, read-out: Prozent der injizierten Aktivität pro Gramm des entsprechenden Organs

>  <structure notation>
CCOC(=O)c1ncn2c1CN(C)C(=O)c1c([123I])cccc1-2

>  <quantity unit>
%ID/g

>  <tissue uptake at 15 h>
0.011

$$$$

###

# assay protocol: Organ distribution of injected radioactivity in rats after I.V. injection
# Format: in vivo, Ratten (weiblich, Wistar, spf)
# condition summary: rat, liver, iv, Leber, 2′, Ratte, read-out: Prozent der injizierten Aktivität pro Gramm des entsprechenden Organs

>  <structure notation>
CCOC(=O)c1ncn2c1CN(C)C(=O)c1c([123I])cccc1-2

>  <tissue uptake at 2 min>
2.38 %ID/g

$$$$

###

# assay protocol: Organ distribution of injected radioactivity in rats after I.V. injection
# Assay type: in vivo, Ratten (weiblich, Wistar, spf)
# condition summary: rat, muscle, iv, Muskel, 6h, Ratte, read-out: Prozent der injizierten Aktivität pro Gramm des entsprechenden Organs

>  <structure notation>
CCOC(=O)c1ncn2c1CN(C)C(=O)c1c([123I])cccc1-2

>  <tissue uptake at 6 h / %ID/g>
0.01

$$$$

###

# assay protocol: Organ distribution of injected radioactivity in rats after I.V. injection
# Type: in vivo, Ratten (weiblich, Wistar, spf)
# condition summary: rat, stomach, iv, Magen, 60′, Ratte, read-out: Prozent der injizierten Aktivität pro Gramm des entsprechenden Organs

>  <structure notation>
CCOC(=O)c1ncn2c1CN(C)C(=O)c1c([123I])cccc1-2

>  <tissue uptake at 1 h (%ID/g)>
0.48

$$$$

###

# assay protocol: Organ distribution of injected radioactivity in rats after I.V. injection
# Type: in vivo, Ratten (weiblich, Wistar, spf)
# condition summary: rat, intestine, iv, Darm, 20′, Ratte, read-out: Prozent der injizierten Aktivität pro Gramm des entsprechenden Organs

>  <structure notation>
CCOC(=O)c1ncn2c1CN(C)C(=O)c1c([123I])cccc1-2

>  <tissue uptake at 20 min, %ID/g>
1.73

$$$$

###

# assay protocol: Organ distribution of injected radioactivity in rats after I.V. injection
# Format: in vivo, Ratten (weiblich, Wistar, spf)
# condition summary: rat, iv, Femur, 60′, Ratte, read-out: Prozent der injizierten Aktivität pro Gramm des entsprechenden Organs
observed property: tissue uptake at 1 h (%ID/g)

>  <structure notation>
CCOC(=O)c1ncn2c1CN(C)C(=O)c1c([123I])cccc1-2

>  <measured result>
0.07

$$$$

###

# assay protocol: Organ distribution of injected radioactivity in rats after I.V. injection
# Assay type: in vivo, Ratten (weiblich, Wistar, spf)
# condition summary: rat, kidney, iv, Nieren, 20′, Ratte, read-out: Prozent der injizierten Aktivität pro Gramm des entsprechenden Organs
# Description: Es werden je 3 Ratten (weiblich, Wistar, spf) zu sieben verschiedenen Zeitpunkten (2′, 10′, 20′, 40′, 1h, 6h, 15h) gemessen. Das Gewicht der Tiere lag zwischen 113 und 144 g. Die Fütterung erfolgte ad libitum. Die I.V. injizierten Dosen variierten von 184 bis 355 µCi in jeweils 0,2 ml.

>  <structure notation>
CCOC(=O)c1ncn2c1CN(C)C(=O)c1c([123I])cccc1-2

>  <quantity unit>
%ID/g

>  <tissue uptake at 20 min>
5.26

$$$$

###

# assay protocol: Organ distribution of injected radioactivity in rats after I.V. injection
# Format: in vivo, Ratten (weiblich, Wistar, spf)
# condition summary: rat, bladder, iv, Blase, 40′, Ratte, read-out: Prozent der injizierten Aktivität pro Gramm des entsprechenden Organs

>  <structure notation>
CCOC(=O)c1ncn2c1CN(C)C(=O)c1c([123I])cccc1-2

>  <tissue uptake at 40 min, %ID/g>
0.24

$$$$
